Provide the recorded IC50 for the entries that follow.
- Tested on: Human immunodeficiency virus 1
- Test Method Notes: Antiviral activity against Human immunodeficiency virus 1 LAI infected in human MT2 cells by MTT assay
Give bare numbers, in nM.

As a guide, the following entries are already answered.
| Structure As Smiles | IC50, nM |
| --- | --- |
| COc1ccc(S(=O)(=O)N(CC(C)C)C[C@@H](O)[C@H](Cc2ccccc2)NC(=O)O[C@@H]2C[C@@H]3[C@H](O)CO[C@@H]3C2)cc1 | 7 |
| CC(C)CN(C[C@@H](O)[C@H](Cc1ccccc1)NC(=O)O[C@@H]1C[C@@H]2[C@@H](O)CO[C@@H]2C1)S(=O)(=O)c1ccc(N)cc1 | 36 |
| COc1ccc(S(=O)(=O)N(CC(C)C)C[C@@H](O)[C@H](Cc2ccccc2)NC(=O)O[C@@H]2C[C@@H]3[C@@H](OC)CO[C@@H]3C2)cc1 | 3.4 |

Continue with the next molecule.
So what IC50 did COc1ccc(S(=O)(=O)N(CC(C)C)C[C@@H](O)[C@H](Cc2ccccc2)NC(=O)O[C@@H]2C[C@@H]3C(=O)CO[C@@H]3C2)cc1 get with Human immunodeficiency virus 1?
14
